Test: Single dose pharmacokinetics, rat
Format: in vivo
Conditions: plasma; Han-Wister rat (male), IV 10 mg/kg; read-out: Clp (IV)
Result Type: clearance (mL/min/kg)

INSERT INTO measurements (smiles_notation, reported_value) VALUES
  ('C[C@@H]1CN2c3c(cc4c(N5C(=O)OC[C@@H]5C)noc4c3F)CC3(C(=O)NC(=O)NC3=O)[C@H]2[C@H](C)O1', 22);

---

Assay: Dog pharmacokinetics
Format: in vivo, Beagle dog
Conditions: plasma; Beagle dog (male), IV 2.5 mg/kg; read-out: Clp (IV)
Result Type: clearance (mL/min/kg)

INSERT INTO assay_data (smiles_notation, reported_value) VALUES
  ('C[C@@H]1CN2c3c(cc4c(N5C(=O)OC[C@@H]5C)noc4c3F)CC3(C(=O)NC(=O)NC3=O)[C@H]2[C@H](C)O1', 4);
